system: HOP-62; experiment: Antiproliferative activity against human HOP-62 cells assessed as cell growth inhibition at 10 uM incubated for 48 hrs by SRB assay relative to control; assay type: functional; details: read-out: GI
Readout label: inhibition of growth at 10 µM (%)
Quick reminder: number only, in %, skip the unit.

Prompt line: Looking for the measured inhibition of growth at 10 µM of Cc1nc2c(cnn2-c2ccccc2)c(=O)n1-c1ccc(NC(=O)c2ccccc2)cc1 , can you help?
Response line: 37.9

Prompt line: Also check Cc1ccc(C(=O)Nc2ccc(-n3c(C)nc4c(cnn4-c4ccccc4)c3=O)cc2)cc1
Response line: 21.2

Prompt line: Continue with COc1ccc(/C=C/C(=O)c2ccc(-n3c(C)nc4c(cnn4-c4ccccc4)c3=O)cc2)cc1
Response line: 19.5

Prompt line: Try this compound too: Cc1nc2c(cnn2-c2ccccc2)c(=O)n1-c1ccc(N)cc1
Response line: 16.2

Prompt line: Cc1nc2c(cnn2-c2ccccc2)c(=O)n1-c1ccc(NC(=O)c2ccc(Cl)cc2)cc1 , same question.
Response line: 41.1
